Target: DltA enzyme (Streptococcus agalactiae serotype III)
Construct: His-tag (from pET100 vector) (N); made in house; host or cells: E. coli BL21 (DE3) Star
Assay: DltA HTS assays (luminescent / fluorescent), inhibition of DltA enzymatic activity in vitro
Format: biochemical, S. agalactiae
Conditions: Table 1; DltA inhibition, HTS assays of method 1; read-out: IC50
Description: The compounds effect on DltA enzyme has been based on the measure of the inhibition of DltA activity in vitro. To this end, a recombinant protein Dlta was expressed and purified after cloning of the gene of S. agalatiae as described below: Methods 1: DltA HTS Assays The assay described below makes use of dithiothreitol (DTT) instead of DltC as reactive thiol in the catalyzed reaction. […] They are easily amenable to miniaturized formats and fast readouts as required by HTS. […]
pIC50: −log10 of the molar value.
Could you please classify the records by pIC50 using these ranges: low-valued: < 6; mid-valued: ≥ 6 and < 7; high-valued: ≥ 7

smiles.record | label.value
OCCCNc1nc2cc(C(F)(F)F)ccc2n2c(-c3cn[nH]c3)cnc12 | mid-valued
Cc1cn[nH]c1-c1cnc2c(NCCCO)nc3cc(C(F)(F)F)ccc3n12 | high-valued
NCc1cnc2c(NCCCO)nc3cc(C(F)(F)F)ccc3n12 | low-valued
OCCCNc1nc2cc(C(F)(F)F)ccc2n2c(-c3cnn[nH]3)cnc12 | mid-valued
OCCCNc1nc2cc(C(F)(F)F)ccc2n2c(-c3cccc(CO)c3)cnc12 | mid-valued

* * *

Molecular target: DltA enzyme (Streptococcus agalactiae serotype III)
Construct: His-tag (from pET100 vector) (N); made in house; host or cells: E. coli BL21 (DE3) Star
Sequence (Q8VM67 1-511): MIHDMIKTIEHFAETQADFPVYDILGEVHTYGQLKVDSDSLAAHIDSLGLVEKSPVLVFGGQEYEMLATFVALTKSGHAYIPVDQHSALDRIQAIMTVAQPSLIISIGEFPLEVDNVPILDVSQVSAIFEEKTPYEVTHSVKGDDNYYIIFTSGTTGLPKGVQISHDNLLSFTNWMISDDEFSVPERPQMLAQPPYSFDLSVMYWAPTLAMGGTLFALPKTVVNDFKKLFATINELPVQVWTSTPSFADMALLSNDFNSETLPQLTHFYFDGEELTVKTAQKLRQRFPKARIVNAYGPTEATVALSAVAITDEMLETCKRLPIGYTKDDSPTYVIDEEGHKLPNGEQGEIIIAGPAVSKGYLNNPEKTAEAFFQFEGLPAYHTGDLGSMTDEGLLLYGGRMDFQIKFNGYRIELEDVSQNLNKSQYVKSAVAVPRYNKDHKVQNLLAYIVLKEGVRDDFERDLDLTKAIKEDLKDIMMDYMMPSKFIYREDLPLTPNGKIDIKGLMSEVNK
Experiment: DltA HTS assays (luminescent / fluorescent), inhibition of DltA enzymatic activity in vitro
Type: biochemical, S. agalactiae
Details: Table 1; DltA inhibition, HTS assays of method 1; read-out: IC50
Could you please mark MET for values of IC50 below 5000 nM and NOT MET for values at or above it?

smiles.record | label.value
OCCCNc1nc2cc(C(F)(F)F)ccc2n2c(-c3cc(-c4ccccc4)n[nH]3)cnc12 | MET
OCCCNc1nc2cc(C(F)(F)F)ccc2n2ccnc12 | MET
OCCCNc1nc2cc(C(F)(F)F)c(Br)cc2n2ccnc12 | NOT MET
CC(=O)N1CC=C(c2cnc3c(NCCCO)nc4cc(C(F)(F)F)ccc4n23)CC1 | MET
OCCCNc1nc2cc(C(F)(F)F)ccc2n2c(Br)cnc12 | MET

* * *

Recorded pIC50 by entry
Molecular target: DltA enzyme (Streptococcus agalactiae serotype III, UniProt Q8VM67)
Construct: His-tag (from pET100 vector) (N); made in house; host or cells: E. coli BL21 (DE3) Star
Assay: DltA HTS assays (luminescent / fluorescent), inhibition of DltA enzymatic activity in vitro
Format: biochemical, S. agalactiae
Conditions: Table 1; DltA inhibition, HTS assays of method 1; read-out: IC50
pIC50: −log10 of the molar value.
quantity.measured: pIC50

smiles.record | quantity.measured | recorded.result
Cc1cc(-c2cnc3c(NCCCO)nc4cc(C(F)(F)F)ccc4n23)[nH]n1 | pIC50 | 7.87
OCCCNc1nc2cc(C(F)(F)F)ccc2n2c(CNCc3ccccc3)cnc12 | pIC50 | 5.21
Cn1cnc2c(NCCCO)nc3cc(C(F)(F)F)ccc3c21 | pIC50 | 4.77
OCCCNc1nc2cc(C(F)(F)F)ccc2n2c(-c3ncc[nH]3)cnc12 | pIC50 | 5.46
OCCCNc1nc2cc(C(F)(F)F)ccc2n2c(-c3ccn[nH]3)cnc12 | pIC50 | 8.05

* * *

Below, each entry is listed alongside its reported IC50.
Biological target: DltA enzyme (Streptococcus agalactiae serotype III)
Construct: His-tag (from pET100 vector) (N); made in house; host or cells: E. coli BL21 (DE3) Star
Test: DltA HTS assays (luminescent / fluorescent), inhibition of DltA enzymatic activity in vitro
Type: biochemical, S. agalactiae
Conditions: Table 1; DltA inhibition, HTS assays of method 1; read-out: IC50

smiles.record | tested.target | IC50 / nM
OCCCNc1nc2cc(C(F)(F)F)ccc2n2c(-c3[nH]ncc3Cl)cnc12 | DltA enzyme (Streptococcus agalactiae serotype III) | 13.5
CNC(=O)c1cc(-c2cnc3c(NCCCO)nc4cc(C(F)(F)F)ccc4n23)[nH]n1 | DltA enzyme (Streptococcus agalactiae serotype III) | 38
OCCCNc1nc2cc(-c3ccccc3C(F)(F)F)ccc2n2c(-c3ccn[nH]3)cnc12 | DltA enzyme (Streptococcus agalactiae serotype III) | 22
COc1ccc(-c2cnc3c(NCCCO)nc4cc(C(F)(F)F)ccc4n23)cc1 | DltA enzyme (Streptococcus agalactiae serotype III) | 230

* * *

Molecular target: DltA enzyme (Streptococcus agalactiae serotype III)
Construct: His-tag (from pET100 vector) (N); made in house; host or cells: E. coli BL21 (DE3) Star
Assay: DltA HTS assays (luminescent / fluorescent), inhibition of DltA enzymatic activity in vitro
Type: biochemical, S. agalactiae
Conditions: Table 1; DltA inhibition, HTS assays of method 1; read-out: IC50

compound | tested.target | IC50 (nM)
CCSc1ccc2c(c1)nc(NCCCO)c1nccn12 [Example 6] | DltA enzyme (Streptococcus agalactiae serotype III) | 6500
OCCCNc1nc2cc(C(F)(F)F)ccc2c2c1ncn2[C@H]1CC[C@H](O)CC1 [Example 26] | DltA enzyme (Streptococcus agalactiae serotype III) | 20000
OCCCNc1nc2cc(C(F)(F)F)ccc2n2c(CO)cnc12 [Example 42] | DltA enzyme (Streptococcus agalactiae serotype III) | 1100
OCCCNc1nc2cc(C(F)(F)F)ccc2n2c(C3=CCNCC3)cnc12 [Example 27] | DltA enzyme (Streptococcus agalactiae serotype III) | 2600
OCCCNc1nc2cc(C(F)(F)F)c(CNc3ccccn3)cc2n2ccnc12 [Example 53] | DltA enzyme (Streptococcus agalactiae serotype III) | 510
OCCCNc1nc2cc(OC(F)(F)F)ccc2n2ccnc12 [Example 7] | DltA enzyme (Streptococcus agalactiae serotype III) | 2200
OCCCNc1nc2cc(Br)ccc2n2ccnc12 [Example 4] | DltA enzyme (Streptococcus agalactiae serotype III) | 6600
OCCCNc1nc2cc(C(F)(F)F)ccc2n2c(-c3ccc(N4CCOCC4)cc3)cnc12 [Example 14] | DltA enzyme (Streptococcus agalactiae serotype III) | 460
CNC(=O)NCc1cnc2c(NCCCO)nc3cc(C(F)(F)F)ccc3n12 [Example 43] | DltA enzyme (Streptococcus agalactiae serotype III) | 1200
OCCCNc1nc2cc(C(F)(F)F)ccc2n2c(I)cnc12 [Example 3] | DltA enzyme (Streptococcus agalactiae serotype III) | 620
CNC(=O)c1ccc(-c2cnc3c(NCCCO)nc4cc(C(F)(F)F)ccc4n23)cc1 [Example 15] | DltA enzyme (Streptococcus agalactiae serotype III) | 200
OCCCNc1nc2cc(C(F)(F)F)ccc2n2c(-c3cc(-c4cccnc4)n[nH]3)cnc12 [Example 33] | DltA enzyme (Streptococcus agalactiae serotype III) | 25
OCCCNc1nc2cc(C(F)(F)F)ccc2n2c(-c3ccccc3)cnc12 [Example 11] | DltA enzyme (Streptococcus agalactiae serotype III) | 730
O=Cc1cnc2c(NCCCO)nc3cc(C(F)(F)F)ccc3n12 [Example 41] | DltA enzyme (Streptococcus agalactiae serotype III) | 4600

* * *

Biological target: DltA enzyme (Streptococcus agalactiae serotype III)
Construct: His-tag (from pET100 vector) (N); made in house; host or cells: E. coli BL21 (DE3) Star
Sequence (Q8VM67 1-511): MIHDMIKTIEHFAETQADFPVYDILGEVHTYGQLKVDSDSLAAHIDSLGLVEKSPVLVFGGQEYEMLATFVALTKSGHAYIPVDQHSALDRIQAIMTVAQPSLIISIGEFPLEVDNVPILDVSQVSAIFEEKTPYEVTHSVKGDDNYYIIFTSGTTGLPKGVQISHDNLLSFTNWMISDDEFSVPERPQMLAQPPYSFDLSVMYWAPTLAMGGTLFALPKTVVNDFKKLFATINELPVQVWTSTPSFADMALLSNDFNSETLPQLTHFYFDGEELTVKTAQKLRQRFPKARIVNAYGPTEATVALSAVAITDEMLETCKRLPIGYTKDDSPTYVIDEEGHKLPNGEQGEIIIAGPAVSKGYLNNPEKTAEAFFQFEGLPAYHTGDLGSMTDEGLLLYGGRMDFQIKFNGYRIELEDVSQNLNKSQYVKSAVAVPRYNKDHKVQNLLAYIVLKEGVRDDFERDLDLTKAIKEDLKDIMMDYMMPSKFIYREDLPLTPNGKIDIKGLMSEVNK
Assay: DltA HTS assays (luminescent / fluorescent), inhibition of DltA enzymatic activity in vitro
Format: biochemical, S. agalactiae
Details: Table 1; DltA inhibition, HTS assays of method 1; read-out: IC50
Text: The compounds effect on DltA enzyme has been based on the measure of the inhibition of DltA activity in vitro. To this end, a recombinant protein Dlta was expressed and purified after cloning of the gene of S. agalatiae as described below: Methods 1: DltA HTS Assays The assay described below makes use of dithiothreitol (DTT) instead of DltC as reactive thiol in the catalyzed reaction. […] They are easily amenable to miniaturized formats and fast readouts as required by HTS. […]

molecule | display.unit | IC50
CS(=O)(=O)Nc1ccc(-c2cnc3c(NCCCO)nc4cc(C(F)(F)F)ccc4n23)cc1 [Example 12] | nM | 87
C=Cc1cnc2c(NCCCO)nc3cc(C(F)(F)F)ccc3n12 [Example 22] | nM | 1000
OCCCNc1nc2cc(C(F)(F)F)c(NCc3ccccc3)cc2n2ccnc12 [Example 56] | nM | 810
Nc1ncc(-c2cnc3c(NCCCO)nc4cc(C(F)(F)F)ccc4n23)cn1 [Example 20] | nM | 860

# credit: patent US8513250B2
